- Tested on: MS2 coat protein
- Assay Summary: apparent KD of MS2 coat protein; higher = weaker reporter binding
- Condition Info: Eterna round: R107; input ligand: arginine 13.2 mM
Assay Readout: apparent KD of MS2 coat protein
Kindly report the value followed by its unit.

- GACAUGAGGAUCACCCAUGUAUUGGGUGAUACCAGCCUGAAUCAUGGCCCUUGGCAGCACCGCGCUAACUUUAUGUUUGCGAACC [Mavegeceri]: 95 nM
- GCAUCCUAGUCGGCCGCCACUGCAACAUGAGGAUCACCCAUGUCUGUAUGUGAUCCAUGCAGUAGCAGGACCGGGACUAGGAUGC [(T1)-(M1)-(M2)-(T)''-(M)'-(T)'-(T2)_Design3_2/18/17]: 237 nM
- GGGAUAUCCCGAAGGAGCGCGAGAUGCUGUGCUGCAUUCCUCACAUGAGGAUCACCCAUGUCGCAGGUAGGUCGCGGGAUAUCCC [#16 Exclusion - Arginine B]: 151 nM

Provide the reported apparent KD of MS2 coat protein of each entry below, same order.
1. CGCGGUUGAGAUGGGCCUUUGAUAAGUCUGCGAGGACCGGUACGGCCGCCACUCGAGGACAUGAGGAUCACCCAUGUACUUCGCG [Atriera]
2. CAUCCACCUGAAGCCUCCCAAUUCCUCGAUACCAGAGGAUUAAGACUCCCUUGGCAGCGAGCUACAUGAGGAUCACCCAUGUGCC [theeternabot_exclusion_MS2_Theo_A_32]
3. UAAAACAUGAGGAUCACCCAUGUAAUUGAUACCAGAGUGAUGAUCCUCCCUUGGCAGCAAAACGCUGAUUGAUUACAAUCAGCGA [Mat - Same State Theophlline A - Mod of Eli - D24]

# output
51.1 nM
17.8 nM
36.8 nM

---

- Test system: MS2 coat protein
- Assay Summary: apparent KD of MS2 coat protein; designed switch direction (-1 OFF switch, 1 ON switch): -1; higher = weaker reporter binding
- Condition Info: input ligand: none
Tag: 1 (yes) if measured apparent KD of MS2 coat protein is not below 20 nM, 0 (no) if it is.

Examples from the recorded data:
- CCAAGCUUAUUCAUUAACCACAUGAGGAUCACCCAUGUAUAGGCAAUUAUGACUGGGCCAUCUGGUGCUCGUCUUAU [Sensor-V1 #29] (Eterna round: R97, puzzle: Sensor, turn-off variant 1): 0 (no)
- CCGGAAAGGAAGGAUAUGCUAGACGAAAGUCUAGCAGAAGGUCCUACAUGAGGAUCACCCAUGUGGCCUCCCGG [Eli x6 4.09] (Eterna round: R97, puzzle: Exclusion 6): 1 (yes)
- UAUUAGCAAGCGAGAUCUCACAUGAGGAUCACCCAUGUGCUCGUCUUAUAAGGUACUGUGACGAUAGUCACGGUACC [Mat - Sensor, turn-off var - Eli Mod - D38] (Eterna round: R97, puzzle: Sensor, turn-off variant 1): 0 (no)

# evaluate next
# input Please tell me: is the sequence UCAGUUUUGCGAGGAUAUCGACCAUUCCUCUUUACAUGAGGAUCACCCAUGUGCUUAUCCUACAACGAGAAGGCGCUCAUACUC [JR_ExcNG2_Sub065] (Eterna round: R96, puzzle: Exclusion NG 2) at or over 20 nM in terms of apparent KD of MS2 coat protein?
# output 1 (yes)
